# System: L1210 leukemia ip in BDF1 mice, survival T/C
# protocol-description: NCI In Vivo Anticancer Drug Screen. Data for tumor model L1210 Leukemia (intraperitoneal) in B6D2F1 (BDF1) mice
# condition-label: endpoint: mean survival time; dose: 200.0 mg/kg/injection; schedule: Q04DX003 (ip); vehicle: saline; higher = longer survival
Inconclusive results and toxic doses are left out.
T/C by entry:

Sample records with T/C:
compound="COC(=O)C1(Br)CCC1(Br)C(=O)OC (stereo not drawn)" measured_target="L1210 leukemia ip in BDF1 mice, survival T/C" recorded_endpoint=T/C measured_result="100 % of control"
compound="CC1(COCCOCC2(C)CO2)CO1 (stereo not drawn)" measured_target="L1210 leukemia ip in BDF1 mice, survival T/C" recorded_endpoint=T/C measured_result="103 % of control"

Let's switch to this compound now.
Lookup: Look at this compound and give its reported T/C. O=C1NC(c2ccccc2)(c2ccccc2)C(=O)N1CCO
Found: 104 % of control
